# procedure text: Plasma pharmacokinetics of SB939 in patients, LC–MS/MS, non-compartmental
# Type: in vivo, human
# details: human, plasma, oral, 10 mg, Day 3 or 5; dose level 1, 10 mg, 3 days every 2 weeks
metric name: Cmax (ng/mL)
Quick note: give the figure in ng/mL, leave out the unit.

Challenge: Which measured Cmax value corresponds to CCCCc1nc2cc(/C=C/C(=O)NO)ccc2n1CCN(CC)CC [SB939] ?
Response given: 18.3

---

# procedure text: Plasma pharmacokinetics of SB939 in patients, LC–MS/MS, non-compartmental
# Type: in vivo, human
# details: human, plasma, oral, 90 mg, Day 3 or 5; dose level 7, 90 mg
metric name: AUC(0-inf) (ng·h/mL)
Quick note: give the figure in ng·h/mL, leave out the unit.

Challenge: Which measured AUC(0-inf) value corresponds to CCCCc1nc2cc(/C=C/C(=O)NO)ccc2n1CCN(CC)CC ?
Response given: 1230
